TEST TARGET: S1PR1 (Homo sapiens)
Sequence (P21453 whole entry): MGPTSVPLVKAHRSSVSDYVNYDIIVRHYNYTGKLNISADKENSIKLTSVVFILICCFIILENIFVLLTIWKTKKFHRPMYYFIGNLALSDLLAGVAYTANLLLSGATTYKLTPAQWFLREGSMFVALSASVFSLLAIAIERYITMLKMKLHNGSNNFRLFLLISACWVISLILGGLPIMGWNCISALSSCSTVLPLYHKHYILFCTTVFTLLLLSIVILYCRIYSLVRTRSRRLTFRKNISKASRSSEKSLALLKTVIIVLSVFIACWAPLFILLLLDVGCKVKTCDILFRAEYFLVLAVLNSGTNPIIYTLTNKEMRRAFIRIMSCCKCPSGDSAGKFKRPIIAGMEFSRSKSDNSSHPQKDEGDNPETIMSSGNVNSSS
ASSAY SUMMARY: In vitro agonist activity on S1PR1 (PathHunter cell line, chemiluminescence)
EXPERIMENTAL CONDITIONS: incubated at 37° C. for 90 to 180 minutes
PARAMETER MEASURED: pEC50
Just so you know, pEC50 here is -log10 of the concentration in molar units; reply with that number alone.

Problem: Dear colleague, I am looking for the recorded pEC50 of the following compound: CC(C)Oc1cc(-c2nc(-c3cccc4c3CCC43CCN(C(C)(C)CO)C3)no2)ccc1C#N (stereo not shown)
Solution: 9.18
